system: P. falciparum 3D7 parasites; experiment: P. falciparum growth inhibition assay, 2-cycle (120 h treatment), delayed-death screen and dose-response; type: cell-based, Plasmodium falciparum; conditions: P. falciparum 3D7, 120 h, library screen at 2 μg/mL, % growth, replicate 1
Measurement name: Pf_120h_%Growth_Rep1 (%)
Report only the number, with the unit % understood.

Take a look at these entries with their results.
Data request: GET /values?readout=Pf_120h_%Growth_Rep1&item= CCC(C)C1OC2(CCC1C)CC1CC(CC=C(C)C(O)C(C)C=CC=C3COC4C(O)C(C)=CC(C(=O)O1)C34O)O2 (stereo not shown) [BIA-I1151]
Data returned: 87.69

Data request: GET /values?readout=Pf_120h_%Growth_Rep1&item= C=C1c2c(Cl)ccc(O)c2C(=O)C2=C(O)[C@]3(O)C(=O)C(C(N)=O)=C(O)[C@@H](N(C)C)[C@@H]3[C@@H](O)[C@H]12 [BIA-M1464]
Data returned: 99.01

Data request: GET /values?readout=Pf_120h_%Growth_Rep1&item= CN1C(=O)[C@]23CC4=CC=C[C@H](O)[C@H]4N2C(=O)[C@@]1(CO)SS3 [BIA-G1260]
Data returned: 35.56

Data request: GET /values?readout=Pf_120h_%Growth_Rep1&item= Cc1cc(OC(=O)c2c(C)cc(O)cc2O)cc(O)c1C(=O)O [BIA-L1669]
Data returned: 65.54

Data request: GET /values?readout=Pf_120h_%Growth_Rep1&item= CC[C@H](C)C(=O)O[C@H]1C[C@@H](C)C=C2C=C[C@H](C)[C@H](CC[C@@H]3C[C@@H](O)CC(=O)O3)[C@H]21 [BIA-L1264]
Data returned: 89.66

Data request: GET /values?readout=Pf_120h_%Growth_Rep1&item= CCC(C)C1OC2(CCC1C)CC1CC(CC=C(C)C(OC3CC(OC)C(OC4CC(OC)C(O)C(C)O4)C(C)O3)C(C)C=CC=C3COC4C(O)C(C)C=C(C(=O)O1)C34O)O2 (stereo not shown) [BIA-I1581]
Data returned: 16.87

Now take the following compound into account.
Data request: GET /values?readout=Pf_120h_%Growth_Rep1&item= CCCC(O)C(O)C1CC(OC)=CC(=O)O1 (stereo not shown) [BIA-H1068]
Data returned: 95.79
